- System: RET (human), P07949 [V804L]
- Sequence (P07949 whole entry V804L, looked up): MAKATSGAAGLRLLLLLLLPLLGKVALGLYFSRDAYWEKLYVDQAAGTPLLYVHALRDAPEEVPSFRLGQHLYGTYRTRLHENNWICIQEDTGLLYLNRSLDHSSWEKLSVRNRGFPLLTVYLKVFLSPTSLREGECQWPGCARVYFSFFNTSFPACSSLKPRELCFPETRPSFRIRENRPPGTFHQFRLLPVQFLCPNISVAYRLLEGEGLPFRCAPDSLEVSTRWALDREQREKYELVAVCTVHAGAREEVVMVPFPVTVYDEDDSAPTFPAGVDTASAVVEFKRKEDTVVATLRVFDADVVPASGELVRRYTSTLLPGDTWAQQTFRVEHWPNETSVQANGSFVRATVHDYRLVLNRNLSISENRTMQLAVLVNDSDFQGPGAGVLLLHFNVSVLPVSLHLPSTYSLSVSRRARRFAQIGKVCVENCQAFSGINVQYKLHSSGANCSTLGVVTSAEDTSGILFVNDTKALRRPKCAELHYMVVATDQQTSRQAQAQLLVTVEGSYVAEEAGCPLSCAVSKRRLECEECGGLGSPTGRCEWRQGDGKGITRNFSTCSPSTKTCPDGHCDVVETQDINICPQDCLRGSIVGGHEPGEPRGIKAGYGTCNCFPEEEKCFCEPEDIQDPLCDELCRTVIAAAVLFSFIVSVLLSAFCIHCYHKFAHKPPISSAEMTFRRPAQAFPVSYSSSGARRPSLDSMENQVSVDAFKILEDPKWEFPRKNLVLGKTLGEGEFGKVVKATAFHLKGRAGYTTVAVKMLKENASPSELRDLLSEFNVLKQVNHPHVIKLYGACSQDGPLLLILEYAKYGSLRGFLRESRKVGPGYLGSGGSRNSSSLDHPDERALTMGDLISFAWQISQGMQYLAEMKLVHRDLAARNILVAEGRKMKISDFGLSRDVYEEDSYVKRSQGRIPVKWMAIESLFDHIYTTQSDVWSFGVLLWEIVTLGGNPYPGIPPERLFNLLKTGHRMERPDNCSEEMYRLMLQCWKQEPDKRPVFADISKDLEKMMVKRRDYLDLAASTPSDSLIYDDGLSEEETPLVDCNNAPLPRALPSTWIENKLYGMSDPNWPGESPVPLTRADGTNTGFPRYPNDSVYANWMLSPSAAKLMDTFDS
- METHOD DESCRIPTION: KINOMEscan competition binding
- RUN PARAMETERS: compound 10.0 µM
Here the recorded kinase still bound, per cent of control is given for each entry.
Just the number in %, nothing appended.

| COMPOUND | kinase still bound, per cent of control (%) |
| --- | --- |
| Nc1ccc(-c2ccc3ncc4ccc(=O)n(-c5cccc(C(F)(F)F)c5)c4c3c2)cn1 | 100 |
| CN(C)C/C=C/C(=O)Nc1cccc(Nc2ncc3c(n2)N(C)c2ccccc2C(=O)N3C)c1 | 0.15 |
| CCCS(=O)(=O)Nc1ccc(F)c(C(=O)c2c[nH]c3ncc(Cl)cc23)c1F | 96 |
| Cc1ccc(C(=O)Nc2cccc(C(F)(F)F)c2)cc1Nc1cncc(C(N)=O)c1 | 100 |
| COc1cc(C)c(Sc2cnc(NC(=O)c3ccc(CNC(C)C(C)C)cc3)s2)cc1C(=O)N1CCN(C(C)=O)CC1 (centres undefined) | 100 |
| COc1cc(C(=O)NC2CCN(C)CC2)ccc1Nc1ncc2c(n1)N(C1CCCC1)C(C)CC(=O)N2C (centres undefined) | 100 |

Noted for C=CC(=O)Nc1cc(-n2c(=O)ccc3cnc4ccc(-c5cn[nH]c5)cc4c32)ccc1C : its kinase still bound, per cent of control reads 79

Noted for CC1=C(C(=O)Nc2cc3cn[nH]c3cc2F)C(c2ccc(C(F)(F)F)cc2)CC(=O)N1 (centres undefined) : its kinase still bound, per cent of control reads 39

Noted for COc1ccc(N(C(=O)Oc2c(C)cccc2C)c2ccnc(Nc3ccc(N4CCN(C)CC4)cc3)n2)c(OC)c1 : its kinase still bound, per cent of control reads 85
